Sourced from the EternaBench riboswitch data

tested on: MS2 coat protein; assay: apparent Kd, MS2 coat protein; higher = weaker binding; RNA-MaP array; conditions: ligand present: flavin mononucleotide; designed as: ON switch for flavin mononucleotide
What apparent Kd was measured for each of the following?
The reply must contain the numeric value and, after it, the unit.

The following sequences have reported results that may help.
UAAAUCUUACAACACAUGAGGAUCACCCAUGUACGGGCGGGAUAGGAUAUCGAAAUGGUCUCAAACGAGAAGGAUCCUUCUUAU: 27.8 nM
UGCAAUGGGUGAGGAUAUACCCACACACAUGAGGAUCACCCAUGUUUCACAAAGGUGAUGACGCGGUAGAAGGCACAAUCCACU: 98.1 nM
AAAUAAGAGGAGAAGGGCAAAAUGUCGAACCGAGCAGGAUAUCCACAGAACAUGAGGAUCACCCAUGUGGUCAAACAGUACAAA: 39 nM
GUCGCAAUCCAGAAGGACGGGCUUGGCGAGUACGUAGGAUAUGGCAGUCACAUGAGGAUCACCCAUGUCAGGAAUUUAAUCAGG: 21.7 nM
AGCGAUGACUGAGGAUAUGCUGUUAGGACAUUGCAACAUGAGGAUCACCCAUGUGAAGGCCGUCAGCAGAAGGCAGUACGUGGA: 4.75 nM

Dear reader, for each entry below, please note its apparent Kd.
1. AGAGAAAAGUAACAUGAGGAUCACCCAUGUAUCCCACGAGUCAGAAGGAGCGGGUUGAUACGAGGCUAGGAUAUGAAGAGUCAU
2. GGACAACAUGAGGAUCACCCAUGUGAGAAGUGCAAAGGAUAUCGCAGAAGUGAUAACGAACGAGAAGGUUGCCUCU
3. CGCACACAGCAACCAAAAUAAACAUGAGGAUCACCCAUGUCACAGGAUAUGGCGAACCCAGGCGACCAGAAGGGUGUAAACACA
4. AAAUACGUAAAACAUGAGGAUCACCCAUGUACAUUUAUUACCAGAAGGAGCGCUAAAAGUACCAGCUAGGAUAUGGGAAGCAAC
5. GCAGUCCUCCGAGGAUAUAUGACAAUUGACGUGAGAUGUUAGCACAUGAGGAUCACCCAUGUUUUAUAGAAGGCGGGAUAGGUU
6. UCAACACAUGAGGAUCACCCAUGUUAUACUAGGGUAGGAUAUGACGUAGUGAAGUGCUCUUCAGAAGGACCAUGGG
7. AAAAGGAUGAUAGGAUAUCAUAACAUGAGGAUCACCCAUGUACAGACGCAACGCUAAACUAGACAUGAGAAGGAUCACAAAACA

Reply:
98.7 nM
10.1 nM
18.6 nM
5.83 nM
18.3 nM
30.1 nM
82.2 nM

---

What apparent Kd was measured for each of the following?
test system: MS2 coat protein; assay: apparent Kd, MS2 coat protein; higher = weaker binding; RNA-MaP array; conditions: designed as: ON switch for flavin mononucleotide; no ligand
Numbers only, in nM.

GUCGCAAUCCAGAAGGACGGGCUUGGCGAGUACGUAGGAUAUGGCAGUCACAUGAGGAUCACCCAUGUCAGGAAUUUAAUCAGG: 53.8
ACUCAACAUGAGGAUCACCCAUGUACUCCAAACAAAGGAUAUUGUGAGUUAAUAUGCAUGCAAGAAGGUUGGUUCA: 42.8
AAAAGGAUGAUAGGAUAUCAUAACAUGAGGAUCACCCAUGUACAGACGCAACGCUAAACUAGACAUGAGAAGGAUCACAAAACA: 179
CGCACACAGCAACCAAAAUAAACAUGAGGAUCACCCAUGUCACAGGAUAUGGCGAACCCAGGCGACCAGAAGGGUGUAAACACA: 26.6
AUACAACAUGAGGAUCACCCAUGUGCUUAAGUUAAAGGAUAUCUAGUGGAUUACAUGCGUAGAGAAGGUUAUUUUA: 12.2
CACCAAUUUCGAGGAUAUACGGCCGGUUAACAUUCGUCUUACAUGAGGAUCACCCAUGUGUUCGCGUAGAAGGCGAUUCUUAAU: 35.4
AGUAACGGAACAUGAGGAUCACCCAUGUCAAAAGAUAAGACAAAGGAUAUCAGAUAAAGACCAAAUGAGAAGGUUGGAAGACAA: 43
GCAGUCCUCCGAGGAUAUAUGACAAUUGACGUGAGAUGUUAGCACAUGAGGAUCACCCAUGUUUUAUAGAAGGCGGGAUAGGUU: 20.5

Dear reader, for each entry below, please note its apparent Kd.
1. ACAUGAGGAUCACCCAUGUUCACGGUUCACGAAGUCUAAAGCUAGGAUAUCAUUGGGUGGGCGCAUGAGAAGGAGCUUCCCGUA
2. CAAUGGCAGUUGCAGGAUAUUCGGCCGGACACAUGAGGAUCACCCAUGUAGGUUCUCCCAUGGAUGAAGAAGGGCACAACAGAAAC
3. AUAAAACAUGAGGAUCACCCAUGUAUAGAAAGCGCAGGAUAUAGGUGAUCAUAGUACUAUCAAGAAGGGCGGAACC
4. UGCAAUGGGUGAGGAUAUACCCACACACAUGAGGAUCACCCAUGUUUCACAAAGGUGAUGACGCGGUAGAAGGCACAAUCCACU
5. AACGACAUGAGGAUCACCCAUGUAUACGACCGAAGUGUACGGUAGGAUAUCGACAGCAUAGAUAACGAGAAGGACCCUUUUGGA
6. GGAUUAAGCUAGAAGGUACGAUCACCGUGAUGGUAAGGAUAUAGAACGAUGCCGAUUCCAACAUGAGGAUCACCCAUGUUCCUA
7. UUCUUACAUGAGGAUCACCCAUGUCUACACCCUACAGGAUAUGAUGCGGUGAAGACCAAUUCAGAAGGGUAAGGUC
8. AGCGAUGACUGAGGAUAUGCUGUUAGGACAUUGCAACAUGAGGAUCACCCAUGUGAAGGCCGUCAGCAGAAGGCAGUACGUGGA

Reply:
70.1
134
217
268
18.1
447
84.1
6.08

Dear reader, for each entry below, please note its apparent Kd.
1. CAAGCGCAUAAGUACGCAACUACAUGAGGAUCACCCAUGUGAAGAAGGGCACAUCUAUCCCACGUGCAGGAUAUUCUCCAAUUU
2. GUACGGUUCCAAGGAUAUGAUAGGUGACAUGAGGAUCACCCAUGUGCCGGUGGUGGGAGCGAGGAUCAGAAGGUGGCCAGCGGU
3. UGAAAUUACGGAGGAUAUCUAUUUACAUGAGGAUCACCCAUGUCCCAGCUACUGCUAUUAUCCGCAGAGAAGGCCGGUGAGUCC

Reply:
1. 44.8
2. 60
3. 171

Dear reader, for each entry below, please note its apparent Kd.
1. GUUAUCGAACAUGAGGAUCACCCAUGUCAGAGCGGCCGACAGAGAAGGCCAAUUGACAAAUGAUUGGAGGAUAUCUGUACUUUU
2. GAAUACGUCAUGAUGAACAUGAGGAUCACCCAUGUAGUGCCUUAGGAUAUGCUACGAUUACUGCCGCAGAAGGAAGUGCAAGAA
3. CUAGAAGACACGGAGGAUAUGUUGUGUAUUACAUGAGGAUCACCCAUGUUCGGAAGUACCGAUUGACAGAAGGCCGUGCAAUCGCU
4. AACAGAAGGCAAGGAUAUAAGGGACCCCCAACAUGAGGAUCACCCAUGUUCUAUGAGGCCGAAUUUUAGAAGGUGCGGGACUAG
5. UUACGGCCGGAAGGAUAUUGUGGCUCCGGAGUAACAUGAGGAUCACCCAUGUGAAUCAAACACAACAAGAAGGUCCCAAAUAGG
6. UAUUUUGCGAAGAAGGAAGCCUCACUGGAAUGCUUAGGAUAUUCUCGCGUGGAGCACAUGCACAUGAGGAUCACCCAUGUACCG
7. CCUUAGAUACAUGAGGAUCACCCAUGUCACCAGCAACCUGACGAGGAUAUAUAGGCCAAAUAACUAUAGAAGGCGUUGACCCAA
8. GGAUGCUCGACUCAGGAUAUACACACCGCAACAUGAGGAUCACCCAUGUAAUACGAACAAUGCACGUAGAAGGGAGGUUAACUCGA

Reply:
1. 19.3
2. 44.1
3. 6.66
4. 43.9
5. 15.9
6. 28.7
7. 20.5
8. 46.4

Query: Can you share its apparent Kd? I mean this sequence: AAAUACGUAAAACAUGAGGAUCACCCAUGUACAUUUAUUACCAGAAGGAGCGCUAAAAGUACCAGCUAGGAUAUGGGAAGCAAC
Reply: 8.05

---

system: MS2 coat protein; assay: apparent Kd, MS2 coat protein; higher = weaker binding; RNA-MaP array; tryptophan 2.4 mM where present; settings: ligand present: tryptophan; designed as: OFF switch for tryptophan
Rule: apparent Kd of 20 nM or more gives Condition met; anything lower gives Condition not met.

GGCACAUAGUCGGCCGCCACUAGUGGGAAAUGGGAGAACAUGAGGAUCACCCAUGUAUUAUAGCCUAGGACCGGGACUAUGUGCC: Condition met
GGCCAUGGAAACAUGGCGGCGGCGUAUGCGCGAGGACCGGUACGGCCGCCACUCGGGCGACAUGAGGAUCACCCAUGUUCCUCAU: Condition met
ACAUGAGCAUCAGCCAUGUGUAUGACAUGACGAGGACCGGUACGGCCGCCACUCGACAUGAGGAUCACCCAUGUUGAGGAUCACA: Condition not met
UAAUCCGGUCCUCGAUAGGUGAUCCUCUAACGAGGACCGGUACGGCCGCCACUCGAUAACAUGAGGAUCACCCAUGUAAUAAUAA: Condition met

Here is the next item to consider.
Query: Hi team, for GGCGCUGCGUCGGCCGCCACUAGUGGGUAAUGGGUGUACAUGAGGAUCACCCAUGUAUUUUGGCCUAGGACCGGGACGUGGCGCC , is the recorded apparent Kd at or above 20 nM?
Reply: Condition met
